Listed compounds paired with reported Content, % (Day 0)
Assay: Stability study in a Constant Temperature & Humidity Chamber (LNTII content by HPLC and appearance)
Format: physicochemical
Conditions: LNTII content by HPLC, Day 0
Respond numerically; units are % and should not be typed.

Below: 3 compounds and their reported Content, % (Day 0).
- compound: "CC(=O)NC1C(O)[C@H](O)C(CO)O[C@H]1OC1C(O)[C@H](O[C@@H]2C(CO)OC(O)C(O)C2O)OC(CO)[C@@H]1O (stereo partly shown) [LNTII amorphous powder, Lacto-N-triose II, reference compound]"
  readout_unit: "%"
  reading: 91.24
- compound: "CC(=O)NC1C(O)[C@H](O)C(CO)O[C@H]1OC1C(O)[C@H](O[C@@H]2C(CO)OC(O)C(O)C2O)OC(CO)[C@@H]1O (single isomer, unassigned) [Crystalline form B in Example 4, Lacto-N-triose II]"
  readout_unit: "%"
  reading: 96.1
- compound: "CC(=O)NC1C(O)[C@H](O)C(CO)O[C@H]1OC1C(O)[C@H](O[C@@H]2C(CO)OC(O)C(O)C2O)OC(CO)[C@@H]1O (single isomer, unassigned) [Crystalline form B in Example 3, Lacto-N-triose II]"
  readout_unit: "%"
  reading: 96.9

Request: Content, % (Day 0) lookup needed for CC(=O)NC1C(O)[C@H](O)C(CO)O[C@H]1OC1C(O)[C@H](O[C@@H]2C(CO)OC(O)C(O)C2O)OC(CO)[C@@H]1O (single isomer, unassigned) [Crystalline form B in Example 7, Lacto-N-triose II] , thanks.
Response: 93.8

---

Test: Stability study in a Constant Temperature & Humidity Chamber (LNTII content by HPLC and appearance)
Assay type: physicochemical
Conditions: 40° C., relative humidity 75%, sealed, 3 months
experimental_endpoint: Content, % (At the end of the 3rd month) (%)
Express the result in % but write the number alone.

Example cases with answers are listed next.
- molecule: "CC(=O)NC1C(O)[C@H](O)C(CO)O[C@H]1OC1C(O)[C@H](O[C@@H]2C(CO)OC(O)C(O)C2O)OC(CO)[C@@H]1O (single isomer, unassigned) [Crystalline form B in Example 3, Lacto-N-triose II]"
  reading: 96.84
- molecule: "CC(=O)NC1C(O)[C@H](O)C(CO)O[C@H]1OC1C(O)[C@H](O[C@@H]2C(CO)OC(O)C(O)C2O)OC(CO)[C@@H]1O (single isomer, unassigned) [Crystalline form B in Example 1, Lacto-N-triose II]"
  reading: 96.76
- molecule: "CC(=O)NC1C(O)[C@H](O)C(CO)O[C@H]1OC1C(O)[C@H](O[C@@H]2C(CO)OC(O)C(O)C2O)OC(CO)[C@@H]1O (single isomer, unassigned) [Crystalline form B in Example 8, Lacto-N-triose II]"
  reading: 96.46
- molecule: "CC(=O)NC1C(O)[C@H](O)C(CO)O[C@H]1OC1C(O)[C@H](O[C@@H]2C(CO)OC(O)C(O)C2O)OC(CO)[C@@H]1O (some centres unmarked) [LNTII amorphous powder, Lacto-N-triose II, reference compound]"
  reading: 90.01

Request: Look up Content, % (At the end of the 3rd month): CC(=O)NC1C(O)[C@H](O)C(CO)O[C@H]1OC1C(O)[C@H](O[C@@H]2C(CO)OC(O)C(O)C2O)OC(CO)[C@@H]1O (single isomer, unassigned) [Crystalline form B in Example 6, Lacto-N-triose II]
Response: 92.31
